meta.source: patent US20250170248A1

biological target: SMARCA2 (Homo sapiens); test: SMARCA2 Western blot degradation in MV4-11 cells; format: cell-based; design: SMARCA2/SMARCA4 protein degradation selectivity in MV4-11 cells; endogenous in cells; host or cells: MV4-11; conditions: MV4-11 cells, 24 h; read-out: SMARCA2 MSD MV411 degradation 24 h: Mean external-Abs DC50
Sequence (P51531 whole entry): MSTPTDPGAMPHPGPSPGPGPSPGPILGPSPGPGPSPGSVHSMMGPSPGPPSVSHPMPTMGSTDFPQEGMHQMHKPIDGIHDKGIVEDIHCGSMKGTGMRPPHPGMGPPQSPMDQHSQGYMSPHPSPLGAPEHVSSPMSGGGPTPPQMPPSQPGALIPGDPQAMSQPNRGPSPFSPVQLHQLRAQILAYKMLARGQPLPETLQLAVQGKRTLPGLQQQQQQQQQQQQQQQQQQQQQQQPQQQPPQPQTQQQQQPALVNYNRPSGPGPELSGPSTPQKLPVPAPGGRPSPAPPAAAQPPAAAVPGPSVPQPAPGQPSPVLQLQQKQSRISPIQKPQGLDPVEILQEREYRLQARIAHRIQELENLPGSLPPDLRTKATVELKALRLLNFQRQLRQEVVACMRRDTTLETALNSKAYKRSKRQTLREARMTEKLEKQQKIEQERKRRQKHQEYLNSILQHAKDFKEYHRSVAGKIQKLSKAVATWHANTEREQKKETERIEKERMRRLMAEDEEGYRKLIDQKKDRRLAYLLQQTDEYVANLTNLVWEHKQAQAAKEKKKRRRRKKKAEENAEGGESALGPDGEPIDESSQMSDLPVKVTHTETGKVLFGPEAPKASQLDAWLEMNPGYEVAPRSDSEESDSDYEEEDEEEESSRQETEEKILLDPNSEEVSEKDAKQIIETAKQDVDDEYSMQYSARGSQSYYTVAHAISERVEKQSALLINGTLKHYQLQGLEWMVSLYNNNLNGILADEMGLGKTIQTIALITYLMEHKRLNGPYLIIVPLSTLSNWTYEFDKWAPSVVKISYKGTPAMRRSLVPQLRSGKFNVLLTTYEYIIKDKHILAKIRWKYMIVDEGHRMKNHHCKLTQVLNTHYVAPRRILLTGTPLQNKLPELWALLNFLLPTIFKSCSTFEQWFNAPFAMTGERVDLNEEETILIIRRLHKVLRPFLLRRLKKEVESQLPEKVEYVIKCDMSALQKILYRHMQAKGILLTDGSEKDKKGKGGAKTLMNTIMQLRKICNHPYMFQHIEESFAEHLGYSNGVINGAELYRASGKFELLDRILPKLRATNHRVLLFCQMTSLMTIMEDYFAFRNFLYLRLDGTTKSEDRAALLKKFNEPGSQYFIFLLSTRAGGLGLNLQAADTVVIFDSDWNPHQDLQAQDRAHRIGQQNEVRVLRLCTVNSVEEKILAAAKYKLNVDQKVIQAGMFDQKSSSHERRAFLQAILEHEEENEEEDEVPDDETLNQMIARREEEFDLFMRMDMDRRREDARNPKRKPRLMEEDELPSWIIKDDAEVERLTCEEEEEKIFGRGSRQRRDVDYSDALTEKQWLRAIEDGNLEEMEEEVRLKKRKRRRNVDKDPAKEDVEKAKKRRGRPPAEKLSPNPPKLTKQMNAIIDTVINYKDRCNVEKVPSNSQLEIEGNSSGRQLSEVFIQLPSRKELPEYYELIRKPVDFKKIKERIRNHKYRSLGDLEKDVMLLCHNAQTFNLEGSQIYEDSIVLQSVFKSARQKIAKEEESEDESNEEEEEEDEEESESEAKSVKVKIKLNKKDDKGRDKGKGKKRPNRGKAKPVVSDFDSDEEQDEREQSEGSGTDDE
Recorded endpoint: DC50

1) C#Cc1ccc(CNC(=O)[C@@H]2C[C@@H](O)CN2C(=O)[C@@H](NC(=O)[C@H]2CCC3(CC2)C[C@H](N2CCC(c4cnc(N5CCN6c7cc(-c8ccccc8O)nnc7NC[C@H]6C5)nc4)CC2)C3)C(C)(C)C)c(OCCCN(C)C)c1 (single isomer, unassigned) [I-129]    1 to 10 nM
2) Cc1ncsc1-c1ccc(CNC(=O)[C@@H]2C[C@@H](O)CN2C(=O)[C@@H](NC(=O)[C@H]2CC3(C2)C[C@H](N2CCN(c4cnc(N5CCc6[nH]c7nnc(-c8ccccc8O)cc7c6[C@H]5C)nc4)CC2)C3)C(C)(C)C)cc1 (single isomer, unassigned) [I-76]    1 to 10 nM
3) C#Cc1ccc(CNC(=O)[C@@H]2C[C@@H](O)CN2C(=O)[C@@H](NC(=O)[C@H]2CC[C@@H](c3ccc(-c4cnc(N5CCN6c7cc(-c8ccccc8O)nnc7NC[C@H]6C5)nc4)cc3)CC2)C(C)(C)C)cc1 [I-24]    < 1 nM

## Input So what's the measured DC50 for this one? Cc1ncsc1-c1ccc(CNC(=O)[C@@H]2C[C@@H](O)CN2C(=O)[C@@H](NC(=O)N2CC3(CC(N4CCC(c5cnc(N6CCN7c8cc(-c9ccccc9O)nnc8NC[C@H]7C6)nc5)CC4)C3)C2)C(C)(C)C)cc1 [I-64]
## Output 1 to 10 nM
